# ASSAY NOTES: in vitro
# EXPERIMENTAL CONDITIONS: human, Caco-2, Efflux Ratio
READOUT NAME: efflux ratio at 2 h
Lab note: jot the number down without any unit.

INSERT INTO assay_data (smiles_str, numeric_value) VALUES
  ('Cc1nn(-c2ccc(Cl)cc2)c2nc(N)c(C#N)c(-c3ccc(O)c(O)c3)c12', 7.78);

I would be grateful if you could share the reported efflux ratio at 2 h for COc1cc(-c2ccnc3c2c(C)nn3-c2ccc(C(F)(F)F)cc2)ccc1O .
2.29
